# assayed.target: GCS (Canis lupus familiaris, UniProt A0A8I3MXG6)
# Construct: endogenous in cells
# Sequence (A0A8I3MXG6 1-394): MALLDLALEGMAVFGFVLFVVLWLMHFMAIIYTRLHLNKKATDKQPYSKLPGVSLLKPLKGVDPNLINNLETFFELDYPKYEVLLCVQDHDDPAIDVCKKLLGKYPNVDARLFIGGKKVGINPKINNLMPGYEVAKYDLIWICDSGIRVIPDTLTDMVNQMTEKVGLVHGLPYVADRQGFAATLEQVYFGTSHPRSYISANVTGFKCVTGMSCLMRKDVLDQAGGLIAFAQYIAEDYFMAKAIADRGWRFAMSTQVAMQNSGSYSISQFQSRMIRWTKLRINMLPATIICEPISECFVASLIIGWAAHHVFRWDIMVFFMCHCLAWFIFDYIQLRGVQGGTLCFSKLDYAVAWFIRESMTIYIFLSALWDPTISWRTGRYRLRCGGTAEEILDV
# experiment.summary: GCS enzymatic assay (MDCK cell lysate, NBD-ceramide to glucosylceramide, LC/MS)
# run.parameters: Table 2; class symbols A, B, C; the table does not say which of the assays; read-out: Data Range (IC50 values)
measured.endpoint: IC50

Requested field: IC50. Item: `O=C(N[C@H](CN1CCCC1)[C@H](O)c1ccc2c(c1)OCCO2)[C@@H]1CCN(c2ccc3cc(Cl)sc3c2)C1` 30 to 100 nM

Another: `CC(C)(O)COc1ccc([C@@H](O)[C@@H](CN2CCCC2)NC(=O)[C@@H]2CCN(c3ccc4ccccc4c3)C2)cc1Cl` 1 to 30 nM

Another: `O=C(N[C@H](CN1CCCC1)[C@H](O)c1ccc(OC(F)F)cc1)[C@@H]1CCN(c2ccc(Cl)cc2)C1` 30 to 100 nM

Another: `CN1CCC(Oc2ccc([C@@H](O)[C@@H](CN3CCCC3)NC(=O)[C@@H]3CCN(c4ccc(Cl)cc4)C3)cc2Cl)CC1` 30 to 100 nM

The origin of these recorded values is patent US10239832B2.
